system: T1, EsCas13d, nuclease-dead (Eubacterium siraeum, UniProt B0MS50, R295A;H300A;R849A;H854A)
T1 sequence: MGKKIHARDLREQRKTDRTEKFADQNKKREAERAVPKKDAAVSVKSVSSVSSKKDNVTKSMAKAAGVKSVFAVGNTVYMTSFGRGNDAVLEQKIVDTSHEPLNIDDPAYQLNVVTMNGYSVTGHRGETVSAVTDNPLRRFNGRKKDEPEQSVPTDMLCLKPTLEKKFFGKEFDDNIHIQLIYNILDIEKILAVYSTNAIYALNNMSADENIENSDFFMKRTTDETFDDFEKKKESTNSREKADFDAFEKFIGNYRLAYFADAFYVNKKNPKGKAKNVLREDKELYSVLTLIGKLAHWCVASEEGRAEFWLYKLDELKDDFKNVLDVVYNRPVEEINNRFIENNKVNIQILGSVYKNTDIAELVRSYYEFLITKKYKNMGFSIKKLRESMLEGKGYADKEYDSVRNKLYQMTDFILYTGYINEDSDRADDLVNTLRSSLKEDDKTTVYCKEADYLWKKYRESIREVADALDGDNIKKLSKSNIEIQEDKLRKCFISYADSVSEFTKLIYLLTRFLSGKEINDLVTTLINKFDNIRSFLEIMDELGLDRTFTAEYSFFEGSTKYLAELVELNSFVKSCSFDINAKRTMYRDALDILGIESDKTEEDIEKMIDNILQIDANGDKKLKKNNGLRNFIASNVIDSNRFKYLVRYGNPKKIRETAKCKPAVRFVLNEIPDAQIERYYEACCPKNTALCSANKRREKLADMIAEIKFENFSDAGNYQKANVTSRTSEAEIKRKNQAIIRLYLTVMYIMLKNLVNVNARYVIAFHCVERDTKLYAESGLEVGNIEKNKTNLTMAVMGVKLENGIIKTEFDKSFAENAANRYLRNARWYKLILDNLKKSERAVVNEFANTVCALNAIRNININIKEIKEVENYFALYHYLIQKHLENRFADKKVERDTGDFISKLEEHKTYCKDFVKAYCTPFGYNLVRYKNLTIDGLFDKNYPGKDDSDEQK
testProtocol: crRNA (strand 1, pre-loaded); Mg2+; 40 mM Tris-HCl pH 7.5, 150 mM NaCl, 6 mM MgCl2, 1 mM DTT, 0.1% Tween-20, 0.2 mg/ml BSA; 25 C; 10 min per concentration, then washed
conditionDetails: tags: His6-TwinStrep-SUMO cleaved; N-terminal SNAP kept (SNAP-Surface 488); label: 3' end held by stalled T7 RNA polymerase
experimentalEndpoint: pKd
Reminder that pKd means the negative base-10 logarithm of the concentration expressed in mol/L.

target 1 insU 3' of 20,insU 3' of 2 (mixed) RNA 1: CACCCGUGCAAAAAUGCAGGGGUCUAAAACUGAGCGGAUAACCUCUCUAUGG RNA 2: GGGAAUGGAUCCACAUCUACGAAUUCGUACCAUUAGAGAGGUUAUCCGCUCUACCGAGAUCGGAAGAGCACACGU :: 7.79
target 2 MT 5'PFS ACC 3'PFS AAU (mixed) RNA 1: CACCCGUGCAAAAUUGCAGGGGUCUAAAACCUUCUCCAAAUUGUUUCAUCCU RNA 2: GGGAAUGGAUCCACAUCUACGAAUUCACCAGGAUGAAACAAUUUGGAGAAGAAUAGAUCGGAAGAGCACACGU :: 8.10
target 2 MT 5'PFS GGG 3'PFS CAU (mixed) RNA 1: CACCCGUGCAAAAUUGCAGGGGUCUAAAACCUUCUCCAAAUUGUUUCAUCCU RNA 2: GGGAAUGGAUCCACAUCUACGAAUUCGGGAGGAUGAAACAAUUUGGAGAAGCAUAGAUCGGAAGAGCACACGU :: 8.10
target 1 C2A,U11G (mixed) RNA 1: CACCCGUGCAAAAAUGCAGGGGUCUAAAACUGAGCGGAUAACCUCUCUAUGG RNA 2: GGGAAUGGAUCCACAUCUACGAAUUCGUACCAUAGAGAGGGUAUCCGCUAACCGAGAUCGGAAGAGCACACGU :: 7.78
target 1 G5A,G12U (mixed) RNA 1: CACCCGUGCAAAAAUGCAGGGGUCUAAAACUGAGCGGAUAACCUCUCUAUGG RNA 2: GGGAAUGGAUCCACAUCUACGAAUUCGUACCAUAGAGAGUUUAUCCACUCACCGAGAUCGGAAGAGCACACGU :: 7.84
target 2 MT 5'PFS UGC 3'PFS CAA (mixed) RNA 1: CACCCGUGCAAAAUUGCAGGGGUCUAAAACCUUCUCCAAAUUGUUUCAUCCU RNA 2: GGGAAUGGAUCCACAUCUACGAAUUCUGCAGGAUGAAACAAUUUGGAGAAGCAAAGAUCGGAAGAGCACACGU :: 7.89
target 3 G3U,U8A (mixed) RNA 1: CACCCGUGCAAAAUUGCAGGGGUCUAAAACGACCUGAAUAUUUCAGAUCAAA RNA 2: GGGAAUGGAUCCACAUCUACGAAUUCGUUUUUGAUCUGAAAUAAUCAGUUCUGCAGAUCGGAAGAGCACACGU :: 7.05

// fetch pKd given entry target 3 insG 3' of 5,insC 3' of 3 (mixed) RNA 1: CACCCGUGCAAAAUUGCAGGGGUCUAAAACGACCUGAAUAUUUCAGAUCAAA RNA 2: GGGAAUGGAUCCACAUCUACGAAUUCGUUUUUGAUCUGAAAUAUUCAGGGCUCUGCAGAUCGGAAGAGCACACGU
7.12
